So I've got a bunch of compounds here, and I need their EC50 values.
- System Tested: Short transient receptor potential channel 4 (Mus musculus, UniProt Q9QUQ5)
- Sequence (Q9QUQ5 whole entry): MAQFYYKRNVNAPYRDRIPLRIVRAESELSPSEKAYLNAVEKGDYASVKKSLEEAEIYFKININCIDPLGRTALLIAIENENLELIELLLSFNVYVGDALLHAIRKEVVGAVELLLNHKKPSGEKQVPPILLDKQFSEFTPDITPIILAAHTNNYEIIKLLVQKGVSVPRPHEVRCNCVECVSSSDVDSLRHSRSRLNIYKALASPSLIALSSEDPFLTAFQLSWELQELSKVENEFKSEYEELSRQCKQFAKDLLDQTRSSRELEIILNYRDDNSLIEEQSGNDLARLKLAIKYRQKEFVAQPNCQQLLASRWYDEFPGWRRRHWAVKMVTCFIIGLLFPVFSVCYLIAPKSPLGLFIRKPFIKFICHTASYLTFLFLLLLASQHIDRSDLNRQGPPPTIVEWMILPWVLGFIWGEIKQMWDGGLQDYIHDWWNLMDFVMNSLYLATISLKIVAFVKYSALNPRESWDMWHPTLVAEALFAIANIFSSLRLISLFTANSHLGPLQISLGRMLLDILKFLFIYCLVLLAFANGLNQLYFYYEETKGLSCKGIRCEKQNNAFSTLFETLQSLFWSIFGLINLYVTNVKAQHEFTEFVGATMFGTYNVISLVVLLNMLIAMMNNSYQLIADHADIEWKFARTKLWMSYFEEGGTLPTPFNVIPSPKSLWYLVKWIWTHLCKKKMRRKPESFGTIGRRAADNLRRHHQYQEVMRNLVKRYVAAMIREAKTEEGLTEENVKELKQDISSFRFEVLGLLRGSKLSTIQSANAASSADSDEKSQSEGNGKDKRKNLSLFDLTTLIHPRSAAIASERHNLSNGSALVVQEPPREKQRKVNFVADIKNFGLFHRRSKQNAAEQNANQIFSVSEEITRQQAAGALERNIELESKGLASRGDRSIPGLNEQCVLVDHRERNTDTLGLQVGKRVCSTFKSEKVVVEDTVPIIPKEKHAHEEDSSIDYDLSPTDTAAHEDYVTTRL
- Protocol Notes: mouse TRPC4 channel inhibitors, dose response, cell-based, HEK293 TRPC4/mu-opioid, Fluo-4 calcium (AID 434942);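 further: potency of inhibitors blocking the TRPC4 calcium response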
- Type: functional
The source made the active and inactive calls. How the calls were made is not given here.

Write down the reported EC50 of COc1ccc(-c2csc(NC(=O)Cc3cccc4ccccc34)c2C(=O)O)cc1 , test system: Short transient receptor potential channel 4 (Mus musculus, UniProt Q9QUQ5).
7.5 µM (active)

What measured EC50 is associated with OCC1(CC2CCCCO2)CCN(Cc2nc3ccccc3[nH]2)CC1 (stereo not given) on Short transient receptor potential channel 4 (Mus musculus, UniProt Q9QUQ5)?
3.35 µM (active)

// fetch Short transient receptor potential channel 4 (Mus musculus, UniProt Q9QUQ5) EC50 for CCOc1ccccc1CN1CCC(n2nccc2NC(=O)CCc2ccccc2)CC1
0.473 µM (active)

Which measured EC50 belongs to Brc1ccccc1CN1CCN(Cc2c[nH]c3ccccc23)CC1 , tested on Short transient receptor potential channel 4 (Mus musculus, UniProt Q9QUQ5)?
0.0747 µM (active)

# get_value(readout= EC50, system= Short transient receptor potential channel 4 (Mus musculus, UniProt Q9QUQ5)) for CCOC(=O)C1=NN(c2ccccc2C)C2=NC(C)=C(C(=O)OC)C(c3cccc(OC)c3)N12 (stereo not given)
2.99 µM (active)
